- TESTED TARGET: Ubiquitin carboxyl-terminal hydrolase 28 (Homo sapiens)
- PROTOCOL TEXT: Concentration-response biochemical assay confirming initial hits as inhibitors of ubiquitin-specific protease 28 (AID 1645866)
- DETAILS: purified USP28, ubiquitin-rhodamine fluorescence, 30 min
The source made the active and inactive calls.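 Rule for the calls: active = in confirmatory dose-response testing, peak deubiquitinase inhibition of 30% or more; inactive = the rest.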
Returns: one label drawn from 1 (yes) for active, 0 (no) for inactive

INSERT INTO assay_data (molecule, tested_target, assigned_category) VALUES
  ('O=C(c1ccco1)N1CCN=C1SCc1ccccc1F', 'Ubiquitin carboxyl-terminal hydrolase 28 (Homo sapiens)', '1 (yes)'),
  ('Cc1ccc(-c2nc(NC(=O)Nc3ccc(Cl)cc3)sc2C)cc1', 'Ubiquitin carboxyl-terminal hydrolase 28 (Homo sapiens)', '1 (yes)'),
  ('CC(=O)c1ccc(N2C(=O)N(Cc3cccc([N+](=O)[O-])c3)c3ccccc3S2(=O)=O)cc1', 'Ubiquitin carboxyl-terminal hydrolase 28 (Homo sapiens)', '0 (no)');

Okay, next one:
Q: // outcome(item) with item = O=C1C[C@@H](O)[C@H](O)[C@@]23O[C@@]12C1(Oc2cccc4cccc(c24)O1)[C@@H]1O[C@@H]1[C@@H]3O
Ans: 1 (yes)

----------
Reported IC50 values for the following compounds.
- TESTED TARGET: Ubiquitin carboxyl-terminal hydrolase 28 (Homo sapiens) (UniProt Q96RU2)
- Sequence (Q96RU2 whole entry, looked up): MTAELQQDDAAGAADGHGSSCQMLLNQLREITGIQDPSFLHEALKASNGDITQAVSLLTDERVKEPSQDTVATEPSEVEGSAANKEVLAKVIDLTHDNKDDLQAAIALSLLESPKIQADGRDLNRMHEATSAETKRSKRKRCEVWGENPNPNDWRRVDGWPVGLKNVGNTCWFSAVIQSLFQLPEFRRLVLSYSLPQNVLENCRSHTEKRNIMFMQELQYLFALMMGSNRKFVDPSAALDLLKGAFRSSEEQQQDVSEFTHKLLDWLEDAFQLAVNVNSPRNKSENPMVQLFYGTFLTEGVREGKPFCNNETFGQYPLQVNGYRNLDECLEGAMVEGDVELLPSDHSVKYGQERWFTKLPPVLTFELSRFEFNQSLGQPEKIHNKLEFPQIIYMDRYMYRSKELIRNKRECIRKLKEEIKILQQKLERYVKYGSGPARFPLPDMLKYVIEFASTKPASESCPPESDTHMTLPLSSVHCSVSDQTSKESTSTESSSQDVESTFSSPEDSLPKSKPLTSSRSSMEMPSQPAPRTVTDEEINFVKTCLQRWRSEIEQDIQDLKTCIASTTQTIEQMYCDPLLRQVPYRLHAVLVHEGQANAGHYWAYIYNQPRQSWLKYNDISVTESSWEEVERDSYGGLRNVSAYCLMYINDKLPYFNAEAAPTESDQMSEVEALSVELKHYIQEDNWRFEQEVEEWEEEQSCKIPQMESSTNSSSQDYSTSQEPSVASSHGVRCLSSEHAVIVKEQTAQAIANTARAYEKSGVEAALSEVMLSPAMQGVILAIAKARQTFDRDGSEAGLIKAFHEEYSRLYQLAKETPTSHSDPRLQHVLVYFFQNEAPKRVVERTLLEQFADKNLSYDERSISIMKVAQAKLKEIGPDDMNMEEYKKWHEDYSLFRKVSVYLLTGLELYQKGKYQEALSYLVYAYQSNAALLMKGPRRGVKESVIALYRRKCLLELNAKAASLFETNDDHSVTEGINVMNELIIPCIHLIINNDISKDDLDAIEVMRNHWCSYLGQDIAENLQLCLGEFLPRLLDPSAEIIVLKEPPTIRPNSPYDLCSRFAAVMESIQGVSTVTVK
- PROTOCOL TEXT: Concentration-response biochemical assay confirming initial hits as inhibitors of ubiquitin-specific protease 28 (AID 1645866)
- DETAILS: purified USP28, ubiquitin-rhodamine fluorescence, 30 min
The source made the active and inactive calls.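 How the source made its calls: active means in confirmatory dose-response testing, peak deubiquitinase inhibition of 30% or more; inactive means the rest.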

Q: Requested read-out: IC50. Entry: Cc1ccc(C(=O)Nc2ccc3c(c2)C(=O)N(C)c2ccccc2O3)cc1C
Ans: 2.75 µM

Q: Moving on to COc1ccc(-c2nc3n(n2)C(CC(=O)Nc2cccc4ccccc24)C(=O)N3)cc1 (stereo not given)
Ans: 4.08 µM

Q: Moving on to COc1ccc(CC(NC(C)=O)C(=O)NC2CCN(c3c(Cc4ccccc4)c(C)nc4ncnn34)CC2)cc1OC (stereo not given)
Ans: > 50 µM (inactive)

Q: Moving on to O=C(Cc1ccccc1F)Nc1nc(-c2ccco2)c(-c2ccco2)s1
Ans: > 50 µM (inactive)

----------
- TESTED TARGET: Ubiquitin carboxyl-terminal hydrolase 28 (Homo sapiens)
Reported pIC50 values for the following molecules.
Please report pIC50 as the negative decimal logarithm of the molar concentration, giving only the number.

Q: Requested read-out: pIC50. Entry: O=C(CC1Oc2ccccc2NC1=O)Nc1ccccc1Br (stereo not drawn)
Ans: 4.42

Q: Moving on to COc1cccc(Cn2nc3n(CC(C)C)c(=O)c4ccc(C(=O)NCC(C)C)cc4n3c2=O)c1
Ans: 5.17

Q: Moving on to COC1/C=C/OC2(C)Oc3c(C)c(O)c4c(c3C2=O)C(=O)C=C(NC(=O)/C(C)=C\C=C\C(C)C(O)C(C)C(O)C(C)C(OC(C)=O)C1C)C4=O (stereo not drawn)
Ans: 4.42

----------
- TESTED TARGET: Ubiquitin carboxyl-terminal hydrolase 28 (Homo sapiens)
- PROTOCOL TEXT: Concentration-response biochemical assay confirming initial hits as inhibitors of ubiquitin-specific protease 28 (AID 1645866)
- DETAILS: purified USP28, ubiquitin-rhodamine fluorescence, 30 min
The source made the active and inactive calls.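 The calls were made as follows: active = in confirmatory dose-response testing, peak deubiquitinase inhibition of 30% or more; inactive = the rest.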
Returns: one label drawn from active, inactive

Sample answers from the record:
INSERT INTO results (compound, assigned_category) VALUES
  ('COCCNC(=O)c1ccn(-c2ccc3ccc(-c4cnn(C)c4)cn23)n1', 'inactive'),
  ('COc1ccc2c(C)c(CC(=O)N3CCC[C@H]3C(=O)O)c(=O)oc2c1C', 'active'),
  ('CC(C)NC(=O)CN1C(=O)CC(C)Sc2ccc(S(=O)(=O)N3CCCCC3)cc21 (stereo unspecified)', 'active'),
  ('CC(C)c1ccc(NC(=O)COC(=O)c2ccc3[nH]c4c(c3c2)CCCC4)cc1', 'active'),
  ('CCCCN1CC(C(=O)Nc2ccc(C(=O)Nc3ccc(Cl)cc3)cc2)CC1=O (stereo unspecified)', 'active');

Okay, next one:
Q: // outcome(item) with item = CN=C(N)NCCC/C=C/CCCC(C)CC(C)C1OC(=O)/C=C/C(C)C(O)CC(O)C(C)C(O)CCC(C)C(O)CC2(O)OC(CC(OC(=O)CC(=O)O)CC(O)CC(O)C(C)C(O)/C=C/C1C)CC(O)C2O (stereo unspecified)
Ans: active

----------
As an illustration, consider measured IC50 for molecules on Ubiquitin carboxyl-terminal hydrolase 28 (Homo sapiens) (UniProt Q96RU2).

Observe how each entry below is paired with its result.
INSERT INTO measurements (molecule, measured_value) VALUES
  ('O=C(Cc1cc(-c2ccc(F)cc2)on1)NCc1ccccc1', '22.1 µM'),
  ('CCOc1ccc(CCNC(=O)c2cccc3c2C(=O)N(CCOC)C3)cc1OCC', '16.1 µM'),
  ('COc1ccc(CNC(=O)c2ccccc2N2C(=O)N3CCc4c([nH]c5ccccc45)[C@@]3(C)C2=O)cc1', '37.4 µM'),
  ('N#Cc1cccc(S(=O)(=O)N2CCc3nc4ccccc4n3CC2)c1', '21.7 µM'),
  ('CCc1nc2c(NC(=O)Nc3cccc(C(=O)OC)c3)cccn2n1', '2.91 µM'),
  ('COc1ccc(NC(=O)Nc2cccc(-c3nnc(-c4ccccc4)o3)c2)cc1OC', '21.7 µM');

Q: Reported IC50 for Ubiquitin carboxyl-terminal hydrolase 28 (Homo sapiens) (UniProt Q96RU2), given O=C(NCc1ccc(-c2nc3cnccc3o2)cc1)c1cc2ccccc2o1 ?
Ans: 4.43 µM

Q: Moving on to O=C(Nc1cccc(-c2noc(C3CCC3)n2)c1)C1CC(=O)N(c2ccccc2)C1 (stereo unspecified)
Ans: 18.8 µM

Q: Moving on to c1ccc(-c2ccc(NCc3ccc4c(c3)OCO4)nn2)cc1
Ans: 6.27 µM

Q: Moving on to c1ccc2c(Cc3nc(-c4ccncc4)no3)cccc2c1
Ans: 0.374 µM

Q: Moving on to O=C(Nc1cccc(Cl)c1)N1CCC(c2cc(-c3ccco3)n[nH]2)CC1
Ans: 4.68 µM

The measured values listed here are drawn from PubChem BioAssay AID1645866.
